TARGET: T1, human TROP2-Fc protein antigen (human, UniProt P09758 27-274)
T1 construct: extracellular domain; also called CRD + TY-1 + CPD; not shown: IgG Fc of the pFUSE-IgG plasmid
T1 sequence (looked up): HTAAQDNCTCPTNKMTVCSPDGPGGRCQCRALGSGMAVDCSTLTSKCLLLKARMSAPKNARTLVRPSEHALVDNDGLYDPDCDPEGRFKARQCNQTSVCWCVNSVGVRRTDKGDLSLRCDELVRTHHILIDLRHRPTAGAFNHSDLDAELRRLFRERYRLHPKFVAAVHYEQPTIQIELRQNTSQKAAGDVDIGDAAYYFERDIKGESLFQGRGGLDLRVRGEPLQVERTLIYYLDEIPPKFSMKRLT
METHOD SUMMARY: SPR (Biacore 8K), human TROP2-Fc on CM-5 chip, VHH in flow
Classification field: enter 1 (yes) for kon values not below 400000 M⁻¹ s⁻¹, 0 (no) for values below it.

Please review the entries below; each comes with its answer.
**Q:** Exam item: decide whether the reported kon for MY1530-5-54 (VHH, Expressed in E. coli WK6 from vector pMECS, purified on a nickel column; also called MY1530-5-54 VHH; anti-TROP2 single domain antibody) VHH: QVQLQESGGGSVQPGGSLRLSCVASGYTASSVCMAWFRQAPGKERELVAGYYHSGGTYYGDSVKGRFTASQDNAKNTLYLQMNSLKPEDTATYYCARARYPSSACGTSPSNYNIWGQGTQVTVSS is at least 400000 M⁻¹ s⁻¹.
**A:** 1 (yes)

**Q:** Please indicate if the recorded kon for MY1530-2-53 (VHH, Expressed in E. coli WK6 from vector pMECS, purified on a nickel column; also called MY1530-2-53 VHH; anti-TROP2 single domain antibody) VHH: QVQLQESGGGSVQAGGSLRLSCAVSGLTSSTTCMGWFRQAPGKEREGVAVIRSSGETTAADSVKGRFTISRDNAKNTLSLQMTSLKPEDTAMYYCAAAWPYSGCLLPLSSGDFTYWGQGTQVTVSS meets or exceeds 400000 M⁻¹ s⁻¹.
**A:** 1 (yes)

**Q:** Entry MY1530-1-26 (VHH, Expressed in E. coli WK6 from vector pMECS, purified on a nickel column; also called MY1530-1-26 VHH; anti-TROP2 single domain antibody) VHH: QVQLQESGGGSVQAGGSLRLSCVVSGYTTTRYSMAWFRQAPGKEREGVAGIDTDVLTTYKPSVEGRFTISRDSAKRTLYLQMNSLKPEDTAMYYCATGTGNFLALDPVWYNTWGQGTQVTVSS : is its kon no less than 400000 M⁻¹ s⁻¹?
**A:** 1 (yes)

**Q:** Confirm if kon reported for the binder MY1530-6-1 (VHH, Expressed in E. coli WK6 from vector pMECS, purified on a nickel column; also called MY1530-6-1 VHH; anti-TROP2 single domain antibody) VHH: QVQLQESGGGSVQAGGSLRLSCAASGFPYSSYSMGWFRQAPGKEREGVAAIYTGGGSTYYAGSVKGRFTISQEHATNTLYLQMNSLKPEDTAMYYCAANMVDNGVISGIQALGVRYYNYWGQGTQVTVSS is 400000 M⁻¹ s⁻¹ or above.
**A:** 1 (yes)

Further cases:
**Q:** I'd appreciate it if you could say whether MY1530-4-22 (VHH, Expressed in E. coli WK6 from vector pMECS, purified on a nickel column; also called MY1530-4-22 VHH; anti-TROP2 single domain antibody) VHH: QVQLQESGGGSVQAGGSLKLSCVVSGYTVSSVCMAWFRQAPGMERELVAGFYHSGGTYYGDSVKGRFTASQDNAKNTLYLQMNSLKPEDTATYYCARARYPSSACGTSPSNYNIWGQGTQVTVSS has kon at least equal to 400000 M⁻¹ s⁻¹.
**A:** 0 (no)

**Q:** State whether the measured kon reaches 400000 M⁻¹ s⁻¹, counting equality as reaching it, for MY1530-4-28 (VHH, Expressed in E. coli WK6 from vector pMECS, purified on a nickel column; also called MY1530-4-28 VHH; anti-TROP2 single domain antibody) VHH: QVQLQESGGGSVQAGGSLRLSCAASGFSVSTTWMHWVRQAPGKGLEWVSRIAINDHTFYAESVKGRFTMSTDNAKNTVYLQMTSLKPEDTAVYYCSPYSDYRIRGQGTQVTVSS
**A:** 0 (no)

**Q:** Please check the record MY1530-1-20 (VHH, Expressed in E. coli WK6 from vector pMECS, purified on a nickel column; also called MY1530-1-20 VHH; anti-TROP2 single domain antibody) VHH: QVQLQESGGGSVLAGGSLRLSCTVSGSFVSSRSMAWFRQTPGKEREGVAAISQYGDPKYAGSVKGRFTMSRDNAKNTLLLQMNSLKPEDTAIYYCAAGEAWELATLSRSDYIYWGQGTQVTVSS and state if its kon is at or above 400000 M⁻¹ s⁻¹.
**A:** 1 (yes)

Where these numbers come from: patent US20240368302A1
